# STUDY_SYSTEM: T1, Rhesus GIPR (rhesus, UniProt F7E1R9 22-466)
# T1 sequence: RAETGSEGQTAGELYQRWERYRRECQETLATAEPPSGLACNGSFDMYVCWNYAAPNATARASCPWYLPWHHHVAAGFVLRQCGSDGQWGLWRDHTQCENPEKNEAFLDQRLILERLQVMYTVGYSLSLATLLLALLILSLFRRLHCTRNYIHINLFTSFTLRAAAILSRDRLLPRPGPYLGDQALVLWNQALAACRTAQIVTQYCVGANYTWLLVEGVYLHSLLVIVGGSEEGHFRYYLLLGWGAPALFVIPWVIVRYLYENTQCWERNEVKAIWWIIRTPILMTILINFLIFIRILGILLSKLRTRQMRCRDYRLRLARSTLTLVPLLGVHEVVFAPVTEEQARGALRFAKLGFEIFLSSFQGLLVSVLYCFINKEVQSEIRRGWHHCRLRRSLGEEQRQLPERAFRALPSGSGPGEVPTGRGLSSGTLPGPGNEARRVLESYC
# ASSAY_PROTOCOL: cell-based or functional assay
READOUT_NAME: Rhesus GIPR CAMP Assay (Conc. mAb @ 60% Inhibition in nM)

BINDER	NUMERIC_VALUE
6A5.004.008 (antibody, human IgG1, kappa, N297G, V domains shown) VH: QVQLVESGGGVVQPGRSLRLSCAASGFSFSSYGMHWVRQPPGKGLEWVAAIWYDGNNKYYADAVKGRFTISRDSSKNTLYLQMNSLRAEDTAVYYCARDRTIFGVVLEYWGQGTLVTVSS VL: DIQMTQSPSSLSASVGDRVTITCQASQDITNYLNWYQQKPGKAPKLLIYDASNLEPGVPSRFSGSGSGTDFTLTISSLQPEDFATYYCQQYDDLFTFGPGTKVDIKR	0.82
4B1.014 (antibody, human IgG1, kappa, N297G, V domains shown) VH: QVQLVESGGGVVQPGRSLRLSCAASGFTFSNFGMHWVRQAPGKGLEWVAVIWYDGSNENYADAVKGRFTISRDNSKNTLYLHMNSLRVADTAVYYCARDGTIFGVVLGDYWGQGTLVTVSS VL: DIQMTQSPSSLSASIGDRVTITCRASQDIRDYLGWYQQKPGKAPKLLIYGASSLQSGVPSRFSGSGSGTEFTLTISSLQPEDFATYYCLQHNNYPFTFGQGTKVDIKR	0.95
4B1 (antibody, human IgG1, kappa, N297G, V domains shown) VH: QVQLVESGGGVVQPGRSLRLSCAASGFTFSNFGMHWVRQAPGKGLEWVAVIWYDGSNENYADSVKGRFTISRDNSKNTLYLHMNSLRVADTAVYYCARDGTIFGVVLGDYWGQGTLVTVSS VL: DIQMTQSPSSLSASIGDRVTITCRASQDIRDYLGWYQQKPGKAPKRLIYGASSLQSGVPSRFSGSGSGTEFTLTISSLQPEDFATYYCLQHNNYPFTFGPGTKVDIKR	0.67
6A5.004.009 (antibody, human IgG1, kappa, N297G, V domains shown, also called iPS:361120; iPS:361122) VH: QVQLVESGGGVVQPGRSLRLSCAASGFSFSSYGMHWVRQPPGKGLEWVAAIWYDANNKYYADSVKGRFTISRDSSKNTLYLQMNSLRAEDTAVYYCARDRTIFGVVLEYWGQGTLVTVSS VL: DIQMTQSPSSLSASVGDRVTITCQASQDITNYLNWYQQKPGKAPKLLIYDASNLEPGVPSRFSGSGSGTDFTLTISSLQPEDFATYYCQQYDDLFTFGPGTKVDIKR	23.3
2F11.003 (antibody, human IgG1, kappa, N297G, V domains shown) VH: QVQLVESGGGVVQPGRSLRLSCAASGFTFSSYGMHWVRQAPGKGLEWVAVIWYDASNKYYADAVKGRFTISSDNSKNTLYLQMNSLRAEDTAVYYCARDRTIFGVVLDYWGQGTLVTVSS VL: DIQMTQSPSSLSASVGDRVTITCQASQDISNYLNWYQQKPGKAPKLLIYDASNLETGVPSRFSGSGSGTDFSLTISSLQPEDFATYYCQQYDILLTFGGGTKVEIKR	1.79
12H11 (antibody, human IgG1, kappa, N297G, V domains shown) VH: QVPLVQSGAEVKKPGASVKVSCKASGYTFTGYYIHWVRQAPGQGLEWMGWISPNNGDTNYAQKFQDRVTMTRDTSISTAYMELSRLRSDDTAVYYCTREATIFGMLIVPFDYWGQGTLVTVSS VL: DIVMTQSPDSLSVSLGERATINCKSSQSVLSSSNNKNYLAWYQQKPGQPPNLLIYWTSTRDSGVPDRFSGSGSGTDFTLTINSLQAEDVAVYYCQQYYRTPWTFGQGTKVEIKR	0.79
11C1 (antibody, human IgG1, kappa, N297G, V domains shown) VH: QVPLVQSGAEVKKPGASVKVSCKASGYTFTGYYIHWVRQAPGQGLVWMGWISPNSGDTSYAQKFQDRVTMTRDTSISTAYMELSRLRSDDTAVYFCTREATIFGMLIVPFDYWGQGTLVTVSS VL: DIVMTQSPDSLSVSLGERATINCKSSQSVLSSSNNKNYLAWYQQKPGQPPNLLIYWTSTRDSGVPDRFSGSGSGTDFTLTINSLQAEDVAVYYCQQYYRTPWTFGQGTKVEIKR	0.65
17B11.002.002 (antibody, human IgG1, lambda, N297G, V domains shown) VH: QMQLVQSGAEVKKPGASVKVSCKASGYTFTSYDINWVRQATGQGLEWMGWMNPNSGNTGYAQKFQGRVTMTRDTSISTAYMELSSLRSQDTAVYYCARGGDYVWGSYRPYYYYYGMDVWGQGTTVTVSS VL: QSVLTQPPSVSAAPGQKVTISCSGSSSNIGNNYVSWYQQLPGTAPKLLIYDNNKRPSGIPDRFSGSKSGTSATLGITGLQTGDEADYYCGTWDSSLSAVVFGGGTKLTVLG	0
11C1.004 (antibody, human IgG1, kappa, N297G, V domains shown) VH: QVPLVQSGAEVKKPGASVKVSCKASGYTFTGYYIHWVRQAPGQGLVWMGWISPNSGETSYAQKFQDRVTMTRDTSISTAYMELSRLRSDDTAVYFCAREATIFGMLIVPFDYWGQGTLVTVSS VL: DIVMTQSPDSLSVSLGERATINCKSSQSVLSSSNNKNYLAWYQQKPGQPPNLLIYWTSTRDSGVPDRFSGSGSGTDFTLTINSLQAEDVAVYYCQQYYRTPWTFGQGTKVEIKR	0.33
18F2.006 (antibody, human IgG1, kappa, N297G, V domains shown) VH: QVQLVESGGGVVQPGRSLRLSCAASGFTFSNFGMHWVRQAPGKGLEWVAVIWYDASNENYADAVKGRFTISRDNSKNTLYLHMNSLRAADTAVYYCARDGTIFGVVLGDYWGQGTLVTVSS VL: DIQMTQSPSSLSASIGDRVTITCRASQDLRNYLGWYQQKPGKAPKRLIYGASSLQSGVPSRFSGSGSGTEFTLTISSLQPEDFATYYCLQHNNYPFTFGPGTKVDIKR	0.52
